A collection of compounds and their measured pIC50
# Test system: HTT
# Test Protocol: Splicing RT-qPCR assay, HTT mRNA canonical junction (CJ) and alternative junction (AJ)
# Type: cell-based, human
# Condition Details: Homo sapiens, RT-qPCR panel, canonical junction mRNA; compound concentration having 50% response in CJ decrease; read-out: HTT IC50 (decrease in CJ mRNA levels)
pIC50: −log10 of the molar value.

Below, each entry is followed by its recorded pIC50 result.
>  <Compound>
CN(c1ccc(-c2ccc(-c3cn[nH]c3)c3[nH]ncc23)nn1)[C@@H]1C[C@H]2CC[C@@H](C1)N2 [Compound 329]

>  <Target Or Test System>
HTT

>  <pIC50>
< 5.00

$$$$
>  <Compound>
Fc1cc(-c2ccc(OC3CC4CC(F)(F)C(C3)N4)nn2)c2[nH]ncc2c1-c1cn[nH]c1 (stereo not shown) [Compound 313]

>  <Target Or Test System>
HTT

>  <pIC50>
> 7.00

$$$$

[in] Param item = [2H]C([2H])([2H])N(c1ccc(-c2ccc(-c3cn[nH]c3)c3ncsc23)nn1)[C@@H]1C[C@H]2CCC[C@@H](C1)N2 [Compound 227] ; retrieve measured pIC50.
[out] > 7.00

[in] Param item = Cn1cc(-c2ccc(-c3ccc(OC4CC(C)(C)NC(C)(C)C4)nn3)c3[nH]ncc23)nn1 [Compound 325] ; retrieve measured pIC50.
[out] 5.00 to 6.00

* * *

A collection of molecules and their measured IC50
# Tested on: MYB
# Test Protocol: Splicing RT-qPCR assay, MYB mRNA canonical junction (CJ) and alternative junction (AJ)
# Type: cell-based, human
# Condition Details: Homo sapiens, 24 h, decrease in CJ mRNA; A673 or K562 cells, 24 hours treatment, RT-qPCR; read-out: MYB CJ IC50

Below, each entry is followed by its recorded IC50 result.
>  <Molecule Smiles>
c1nc2c(-c3cn[nH]c3)ccc(-c3ccc(O[C@H]4C[C@H]5COC[C@@H](C4)N5)nn3)c2s1

>  <Target Or Test System>
MYB

>  <Reported Value>
1 to 10 µM

$$$$
>  <Molecule Smiles>
c1nc2c(-c3cn[nH]c3)ccc(-c3ccc(N4CCCC5(CNC5)C4)nn3)c2s1

>  <Target Or Test System>
MYB

>  <Reported Value>
> 10 µM

$$$$
>  <Molecule Smiles>
c1cnn(-c2ccc(-c3ccc(N[C@@H]4C[C@H]5CC[C@@H](C4)N5)nn3)c3[nH]ncc23)c1

>  <Target Or Test System>
MYB

>  <Reported Value>
0.1 to 1 µM

$$$$

# next molecule below
[in] Param item = "CN(c1ccc(-c2ccc(-n3cccn3)c3ncsc23)nn1)[C@@H]1C[C@H]2CC[C@@H](C1)N2" ; retrieve measured IC50.
[out] 0.1 to 1 µM

* * *

# Test system: MYB
# Test Protocol: Splicing RT-qPCR assay, MYB mRNA canonical junction (CJ) and alternative junction (AJ)
# Type: cell-based, human
# Condition Details: Homo sapiens, 24 h, decrease in CJ mRNA; A673 or K562 cells, 24 hours treatment, RT-qPCR; read-out: MYB CJ IC50
Assay Metric: IC50

[in] Param item = "CN(c1ccc(-c2ccc(-c3cn[nH]c3)c3ncsc23)nn1)[C@H]1[C@@H]2CNC[C@@H]21" ; retrieve measured IC50.
[out] > 10 µM

[in] Param item = Cc1cc(-c2ccc(-c3ccc(O[C@H]4C[C@@H]5CC(F)(F)[C@H](C4)N5)nn3)c3[nH]ncc23)ccn1 (single isomer, unassigned) ; retrieve measured IC50.
[out] > 10 µM

[in] Param item = "CN(c1ccc(-c2ccc(-c3cnn(C)c(=O)c3)c3ncsc23)nn1)C1CC(C)(C)NC(C)(C)C1" ; retrieve measured IC50.
[out] 1 to 10 µM

* * *

A collection of compounds and their measured pIC50
# Tested on: MYB
# Test Protocol: HiBiT protein abundance assay, MYB
# Assay type: cell-based, human
# Condition Details: Homo sapiens, K562, 24 h, Table 13B, modified K562 cells
pIC50: −log10 of the molar value.

>  <Molecule Smiles>
COc1nc(-c2ccc(N(C)[C@@H]3C[C@H]4CC[C@@H](C3)N4)nn2)ncc1-c1cn[nH]c1

>  <Target Or Test System>
MYB

>  <Reported Value>
5.00 to 6.00

$$$$

[in] Param item = "COc1nc(-c2ccc(O[C@@H]3C[C@H]4CC[C@@H](C3)N4)nn2)ccc1-c1ccnc(C)c1" ; retrieve measured pIC50.
[out] 5.00 to 6.00

[in] Param item = "CN(c1ccc(-c2ccc(-c3cn[nH]c3)c(C(F)(F)F)n2)nn1)[C@@H]1C[C@H]2CC[C@@H](C1)N2" ; retrieve measured pIC50.
[out] < 5.00

* * *

A collection of molecules and their measured pIC50
# Test system: Target C
# Test Protocol: HiBiT protein abundance assay, Target C
# Format: cell-based, human
# Condition Details: Homo sapiens, K562, 24 h, Table 13A, modified K562 cells
pIC50: −log10 of the molar value.

Below, each entry is followed by its recorded pIC50 result.
>  <Molecule>
c1nc2c(-c3cn[nH]c3)ccc(-c3ccc(N(C4CCNCC4)C4CC4)nn3)c2s1

>  <Reported Value>
5.00 to 6.00

$$$$
>  <Molecule>
CNC1CCN(c2ncc(-c3ccc(-c4cn[nH]c4)c4ncsc34)nn2)C1 (stereo not drawn)

>  <Reported Value>
5.00 to 6.00

$$$$
>  <Molecule>
CC1(C)CC(Oc2ccc(-c3ccc(-n4cccn4)c4ncsc34)nn2)CC(C)(C)N1

>  <Reported Value>
5.00 to 6.00

$$$$
>  <Molecule>
Cn1ncc(-c2ccc(-c3ccc(OC4CC(C)(C)NC(C)(C)C4)nn3)c3[nH]ncc23)n1

>  <Reported Value>
6.00 to 7.00

$$$$
>  <Molecule>
Cc1ncc(-c2ccc(-c3ccc(N(C)C4CC(C)(C)NC(C)(C)C4)nn3)c3scnc23)o1

>  <Reported Value>
6.00 to 7.00

$$$$

[in] Param item = CC(C)(C)NC1CCN(c2ccc(-c3ccc(-c4cn[nH]c4)c4cn[nH]c34)nn2)C1 (stereo not drawn) ; retrieve measured pIC50.
[out] 5.00 to 6.00

[in] Param item = "CN(c1ccc(-c2ccc(-c3cn(C)nn3)c3cn[nH]c23)nn1)[C@@H]1C[C@H]2CC[C@@H](C1)N2" ; retrieve measured pIC50.
[out] 5.00 to 6.00

[in] Param item = "c1n[nH]cc1-c1ccc(-c2ccc(OC3CCNCC3)nn2)c2[nH]ncc12" ; retrieve measured pIC50.
[out] < 5.00

[in] Param item = c1nc2c(-c3cn[nH]c3)ccc(-c3ccc(N4CCC45CCCNC5)nn3)c2s1 (stereo not drawn) ; retrieve measured pIC50.
[out] 5.00 to 6.00

[in] Param item = "c1nc2c(-c3cn[nH]c3)ccc(-c3ccc(N(C4CC4)[C@@H]4C[C@H]5CC[C@@H](C4)N5)nn3)c2s1" ; retrieve measured pIC50.
[out] > 7.00

[in] Param item = c1nc2c(-c3cn[nH]c3)ccc(-c3ccc(N4CCC5(CCCNC5)C4)nn3)c2s1 (stereo not drawn) ; retrieve measured pIC50.
[out] < 5.00

* * *

# System: MYB
# Test Protocol: Splicing RT-qPCR assay, MYB mRNA canonical junction (CJ) and alternative junction (AJ)
# Format: cell-based, human
# Condition Details: Homo sapiens, 24 h, decrease in CJ mRNA; A673 or K562 cells, 24 hours treatment, RT-qPCR; read-out: MYB CJ IC50
Assay Metric: IC50

>  <Molecule>
c1nc2c(-c3cn[nH]c3)ccc(-c3ccc(C4CCNCC4)nn3)c2s1 [Compound 206]

>  <Target Or Test System>
MYB

>  <Assay Metric>
IC50

>  <Reported Value>
1000 to 10000 nM

$$$$
>  <Molecule>
CN(c1ccc(-c2ccc(-c3cn[nH]c3)c3cn[nH]c23)nn1)[C@H]1[C@@H]2CNC[C@@H]21 [Compound 301]

>  <Target Or Test System>
MYB

>  <Assay Metric>
IC50

>  <Reported Value>
> 10000 nM

$$$$
>  <Molecule>
CN(c1ccc(-c2ccc(-c3cnn(C)c3)c3cn[nH]c23)nn1)C1CC(C)(C)NC(C)(C)C1 [Compound 243]

>  <Target Or Test System>
MYB

>  <Assay Metric>
IC50

>  <Reported Value>
1000 to 10000 nM

$$$$
>  <Molecule>
Cn1cc(-c2ccc(-c3ccc(OC4CC(C)(C)NC(C)(C)C4)nn3)c3[nH]ncc23)cn1 [Compound 232]

>  <Target Or Test System>
MYB

>  <Assay Metric>
IC50

>  <Reported Value>
1000 to 10000 nM

$$$$
>  <Molecule>
[2H]C([2H])([2H])N(c1ccc(-c2ccc(-c3cn[nH]c3)c3ncsc23)nn1)[C@@H]1C[C@H]2CCC[C@@H](C1)N2 [Compound 227]

>  <Target Or Test System>
MYB

>  <Assay Metric>
IC50

>  <Reported Value>
< 100 nM

$$$$

[in] Param item = c1n[nH]cc1-c1ccc(-c2ccc(N3C[C@H]4CNC[C@H]4C3)nn2)c2[nH]ncc12 [Compound 254] ; retrieve measured IC50.
[out] > 10000 nM

[in] Param item = CN(c1ccc(-c2ccc(-n3cccn3)c3cn[nH]c23)nn1)C1CC(C)(C)NC(C)(C)C1 [Compound 150] ; retrieve measured IC50.
[out] 100 to 1000 nM
